Test system: BEN
Experiment: relative viability (nuclei count vs DMSO), 5 days (fraction); higher = more cells survive
Measurement Setup: first compound 0.04 µM
Assay Endpoint: relative viability

Molecule	Value Reported
Cc1sc2c(c1C)C(c1ccc(Cl)cc1)=N[C@@H](CC(=O)OC(C)(C)C)c1nnc(C)n1-2 [JQ1] + COc1cc2c(Oc3ccc(NC(=O)C4(C(=O)Nc5ccc(F)cc5)CC4)cc3F)ccnc2cc1OCCCN1CCOCC1 [Foretinib] (partner 0.25 µM)	0.482
Cc1sc2c(c1C)C(c1ccc(Cl)cc1)=N[C@@H](CC(=O)OC(C)(C)C)c1nnc(C)n1-2 [JQ1] + C[C@]1(O)C[C@@H](c2nc(-c3ccc4ccc(-c5ccccc5)nc4c3)c3c(N)nccn32)C1 [Linsitinib] (partner 1 µM)	0.886
Cc1sc2c(c1C)C(c1ccc(Cl)cc1)=N[C@@H](CC(=O)OC(C)(C)C)c1nnc(C)n1-2 [JQ1] + CS(=O)(=O)N1CCN(Cc2cc3nc(-c4cccc5[nH]ncc45)nc(N4CCOCC4)c3s2)CC1 [Pictilisib] (partner 1 µM)	0.481
Cc1sc2c(c1C)C(c1ccc(Cl)cc1)=N[C@@H](CC(=O)OC(C)(C)C)c1nnc(C)n1-2 [JQ1] + O=C(c1cc(Cc2n[nH]c(=O)c3ccccc23)ccc1F)N1CCN(C(=O)C2CC2)CC1 [Olaparib] (partner 8 µM)	1.02

* * *

Tested on: NCI-H838
Experiment: relative viability (nuclei count vs DMSO), 5 days (fraction); higher = more cells survive
Measurement Setup: first compound 1.265 µM

Compound	relative viability
Cc1sc2c(c1C)C(c1ccc(Cl)cc1)=N[C@@H](CC(=O)OC(C)(C)C)c1nnc(C)n1-2 [JQ1] + O=C(CCCCCCC(=O)Nc1ccccc1)NO [Vorinostat] (partner 1 µM)	0.277
Cc1sc2c(c1C)C(c1ccc(Cl)cc1)=N[C@@H](CC(=O)OC(C)(C)C)c1nnc(C)n1-2 [JQ1] + CC(=O)Nc1cccc(-n2c(=O)n(C3CC3)c(=O)c3c(Nc4ccc(I)cc4F)n(C)c(=O)c(C)c32)c1 [Trametinib] (partner 0.02 µM)	0.293
Cc1sc2c(c1C)C(c1ccc(Cl)cc1)=N[C@@H](CC(=O)OC(C)(C)C)c1nnc(C)n1-2 [JQ1] + C[C@@H](Oc1cc(-c2cnn(C3CCNCC3)c2)cnc1N)c1c(Cl)ccc(F)c1Cl [Crizotinib] (partner 1 µM)	0.27
Cc1sc2c(c1C)C(c1ccc(Cl)cc1)=N[C@@H](CC(=O)OC(C)(C)C)c1nnc(C)n1-2 [JQ1] + Cc1nc(NC(=O)N2CCC[C@H]2C(N)=O)sc1-c1ccnc(C(C)(C)C(F)(F)F)c1 [Alpelisib] (partner 2 µM)	0.291
Cc1sc2c(c1C)C(c1ccc(Cl)cc1)=N[C@@H](CC(=O)OC(C)(C)C)c1nnc(C)n1-2 [JQ1] + N=C(N)NC(=N)NCCc1ccccc1 [Phenformin] (partner 250 µM)	0.253

* * *

System: NCI-H2405
Experiment: relative viability (nuclei count vs DMSO), 5 days (fraction); higher = more cells survive
Measurement Setup: first compound 0.002 µM

Compound	relative viability
CC(=O)O[C@@]12CO[C@@H]1C[C@H](O)[C@@]1(C)C(=O)[C@H](O)C3=C(C)[C@@H](OC(=O)[C@H](O)[C@@H](NC(=O)OC(C)(C)C)c4ccccc4)C[C@@](O)([C@@H](OC(=O)c4ccccc4)[C@H]21)C3(C)C [Docetaxel] + O=C(CCCCCCC(=O)Nc1ccccc1)NO [Vorinostat] (partner 1 µM)	0.546
CC(=O)O[C@@]12CO[C@@H]1C[C@H](O)[C@@]1(C)C(=O)[C@H](O)C3=C(C)[C@@H](OC(=O)[C@H](O)[C@@H](NC(=O)OC(C)(C)C)c4ccccc4)C[C@@](O)([C@@H](OC(=O)c4ccccc4)[C@H]21)C3(C)C [Docetaxel] + CS(=O)(=O)N1CCN(Cc2cc3nc(-c4cccc5[nH]ncc45)nc(N4CCOCC4)c3s2)CC1 [Pictilisib] (partner 1 µM)	0.39
